target: HsCDK2–CYCA (Homo sapiens, UniProt P24941); assay: radiometric CDK2 counter-screen; type: biochemical; conditions: HsCDK2–CYCA IC50 [μM], mean of two or more experiments; 1 μM ATP
PROPERTY LABEL: IC50

Task: I am curious: what IC50 value has been reported for CC1(C)CC(=O)C=C(NC(=O)Nc2ccc(OCc3ccccc3)cc2)C1 [Compound 58] ?
Result: > 100 µM

Task: Next: COc1ccccc1NC(=O)NC1=CC(=O)CC(C)(C)C1 [Compound 55]
Result: > 100 µM

Task: Next: O=C1C=C(NC(=O)Nc2ccccc2)CCC1 [Compound 61]
Result: > 100 µM

Task: Next: CC1(C)CC(=O)C=C(NC(=O)Nc2ccccc2)C1 [Compound 50]
Result: > 100 µM

Task: Next: O=C(Nc1cc(-c2ccc(Cl)cc2)[nH]n1)C1CCC1 [Compound 7]
Result: 1.2 µM

Task: Next: CC(=O)Nc1cc(-c2ccc(Cl)cc2)n[nH]1 [Compound 2]
Result: 1.6 µM

Task: Next: Cc1cccc(-c2ccc3nc(NCC4CCCCC4)nn3c2)c1 [Compound 36]
Result: 64 µM

Task: Next: COc1cccc(NC(=O)NC2=CC(=O)CC(C)(C)C2)c1 [Compound 56]
Result: > 100 µM

Task: Next: CC1(C)CC(=O)C=C(NC(=O)Nc2ccc(O)cc2)C1 [Compound 60]
Result: 5.9 µM

Task: Next: COC(=O)c1ccc(NC(=O)NC2=CC(=O)CC(C)(C)C2)cc1 [Compound 59]
Result: > 100 µM

Task: Next: COc1ccc(NC(=O)NC2=CC(=O)CC(C)(C)C2)cc1 [Compound 57]
Result: > 100 µM

Task: Next: CC1(C)CC(=O)C=C(NC(=O)NC2CCCCC2)C1 [Compound 54]
Result: > 100 µM

----------
Target: Leishmania CRK3–CYC6 complex (Leishmania mexicana)
Sequence (O15851 1-311): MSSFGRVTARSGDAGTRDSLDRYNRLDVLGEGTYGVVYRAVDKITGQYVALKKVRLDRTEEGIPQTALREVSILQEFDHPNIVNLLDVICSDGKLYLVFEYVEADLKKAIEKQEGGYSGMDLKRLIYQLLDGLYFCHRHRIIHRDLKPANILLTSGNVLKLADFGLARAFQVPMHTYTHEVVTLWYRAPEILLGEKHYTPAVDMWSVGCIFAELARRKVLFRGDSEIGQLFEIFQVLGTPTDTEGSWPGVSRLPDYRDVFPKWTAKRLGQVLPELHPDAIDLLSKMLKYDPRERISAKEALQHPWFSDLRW
Sequence (Q4Q4U0 1-303 partner): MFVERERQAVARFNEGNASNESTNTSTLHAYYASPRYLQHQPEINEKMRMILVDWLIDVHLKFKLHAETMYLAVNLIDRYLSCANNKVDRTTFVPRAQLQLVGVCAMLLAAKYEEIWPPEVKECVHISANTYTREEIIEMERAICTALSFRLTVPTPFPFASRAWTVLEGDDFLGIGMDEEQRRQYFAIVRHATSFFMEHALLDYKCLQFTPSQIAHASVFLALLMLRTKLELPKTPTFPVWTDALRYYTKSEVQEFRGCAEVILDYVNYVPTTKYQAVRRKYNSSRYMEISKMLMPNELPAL
Test: IMAP-FP primary screen
Type: biochemical, L. mexicana CRK3, L. major CYC6
Conditions: read-out: CRK3–CYC6 Inhib. [%]
PROPERTY LABEL: inhibition at 30 µM (%)
Numeric answer only, unit % assumed.

Task: I am curious: what inhibition at 30 µM value has been reported for CC(=O)Nc1cc(-c2ccc(Cl)cc2)n[nH]1 [Compound 2] ?
Result: 74

Task: Next: O=C(Nc1cc(-c2ccc(Cl)cc2)[nH]n1)C1CCC1 [Compound 7]
Result: 99

Task: Next: O=C(Nc1cc(-c2ccc(Cl)cc2)[nH]n1)C1CCCCC1 [Compound 11]
Result: 100

Task: Next: O=C(Nc1cc(-c2ccc(Cl)cc2)[nH]n1)c1cccnc1 [Compound 10]
Result: 100
